The values you see were collected from patent US20130029961A1.

Let's look at some compounds and their measured Ki.
molecular target: TRPV1 human (Homo sapiens); construct: expressed in transfected cells; host or cells: CHO K1 cells; test: Functional FLIPR Ca2+ influx assay on vanilloid receptor 1 (VR1/TRPV1), capsaicin stimulus; format: cell-based; conditions: functional (f), vs capsaicin (CAP); Ki from IC50 by Cheng-Prusoff
Sequence (Q8NER1 whole entry): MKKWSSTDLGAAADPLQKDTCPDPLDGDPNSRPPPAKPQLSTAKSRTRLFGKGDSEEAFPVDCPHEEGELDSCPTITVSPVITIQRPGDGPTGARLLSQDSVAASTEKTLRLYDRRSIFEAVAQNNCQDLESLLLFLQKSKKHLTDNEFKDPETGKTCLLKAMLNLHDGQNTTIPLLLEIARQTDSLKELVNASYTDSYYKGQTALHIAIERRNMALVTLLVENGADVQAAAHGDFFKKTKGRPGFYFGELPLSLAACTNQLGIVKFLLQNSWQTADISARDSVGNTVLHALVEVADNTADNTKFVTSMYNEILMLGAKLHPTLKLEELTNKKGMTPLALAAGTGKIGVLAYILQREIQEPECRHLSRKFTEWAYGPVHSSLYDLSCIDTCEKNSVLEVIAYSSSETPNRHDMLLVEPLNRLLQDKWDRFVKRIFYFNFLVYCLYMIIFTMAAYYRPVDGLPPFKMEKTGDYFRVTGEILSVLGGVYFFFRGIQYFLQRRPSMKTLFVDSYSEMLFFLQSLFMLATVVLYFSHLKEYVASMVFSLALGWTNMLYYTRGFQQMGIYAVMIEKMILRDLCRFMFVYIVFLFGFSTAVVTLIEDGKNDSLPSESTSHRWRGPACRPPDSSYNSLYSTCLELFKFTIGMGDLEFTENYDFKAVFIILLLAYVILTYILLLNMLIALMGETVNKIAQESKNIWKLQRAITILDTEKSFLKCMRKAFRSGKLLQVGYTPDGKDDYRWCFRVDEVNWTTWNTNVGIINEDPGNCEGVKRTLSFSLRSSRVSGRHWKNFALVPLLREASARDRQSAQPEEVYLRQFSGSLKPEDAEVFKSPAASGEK
Measured metric: Ki (nM)

O=C(NCc1ccc(C(F)(F)F)nc1-c1cccc(F)c1)Nc1ccc(NCCO)nc1 [compound 130]	15
CC1CCN(c2nc(C(F)(F)F)ccc2CNC(=O)C(C)c2cnc(C(=O)Nc3ccccc3)nc2)CC1 (stereo not drawn) [compound 76]	77
CC1CCN(c2nc(C(F)(F)F)ccc2CNC(=O)C(C)c2ccc(C(=O)Nc3ccccc3)nc2)CC1 (stereo not drawn) [compound 75]	57
CC1CCN(c2nc(C(F)(F)F)ccc2CNC(=O)Nc2cnc(CCS(C)(=O)=O)c(F)c2)CC1 [compound 67]	6
CC1CCN(c2nc(C(F)(F)F)ccc2CNC(=O)Nc2ccccn2)CC1 [compound 19]	35
CC1CCN(c2nc(C(F)(F)F)ccc2CNC(=O)Nc2cncc(CO)c2)CC1 [compound 126]	26
CC(C(=O)NCc1ccc(C(F)(F)F)nc1N1CCCC1)c1cnc(C(=O)Nc2ccc(F)cc2)nc1 (stereo not drawn) [compound 78]	42
CC1CCN(c2nc(C(F)(F)F)ccc2CNC(=O)Nc2ccc(CO)cn2)CC1 [compound 127]	61
CC1CCN(c2nc(C(F)(F)F)ccc2CNC(=O)Nc2ccc(NCCO)nc2)CC1 [compound 86]	1
CC1CCN(c2nc(C(F)(F)F)ccc2CNC(=O)Nc2ccc(N3CCC3)nc2)CC1 [compound 105]	27
COCCNc1ccc(C(C)C(=O)NCc2ccc(C(F)(F)F)nc2N2CCC(C)CC2)cn1 (stereo not drawn) [compound 87]	27
CC1CCN(c2nc(C(F)(F)F)ccc2CNC(=O)Nc2ccc(N3CCCC3)nc2)CC1 [compound 114]	12
CC1CCN(c2nc(C(F)(F)F)ccc2CNC(=O)C(C)c2ccc(NC(=O)c3ccc(Cl)cc3)nc2)CC1 (stereo not drawn) [compound 99]	9
CC1CCN(c2nc(C(F)(F)F)ccc2CNC(=O)Nc2ccnnc2)CC1 [compound 42]	9
COc1cc(NC(=O)NCc2ccc(C(F)(F)F)nc2N2CCC(C)CC2)cnc1N1CCC1 [compound 107]	81
CC1CCN(c2nc(C(F)(F)F)ccc2CNC(=O)Cc2cncnc2)CC1 [compound 47]	38
CC1CCN(c2nc(C(F)(F)F)ccc2CNC(=O)C(C)c2ccc(N)c(Br)n2)CC1 (stereo not drawn) [compound 84]	50
CCNc1nc(C(F)(F)F)ccc1CNC(=O)C(C)c1cnc(C(=O)Nc2ccc(F)cc2)nc1 (stereo not drawn) [compound 77]	80
CC1CCN(c2nc(C(F)(F)F)ccc2CNC(=O)Nc2ccc(N3CC[C@@H](O)C3)nc2)CC1 [compound 118]	10
COc1cc(C(C)C(=O)NCc2ccc(C(F)(F)F)nc2N2CCC(C)CC2)cnc1NS(C)(=O)=O (stereo not drawn) [compound 97]	2
CC(C(=O)NCc1ccc(C(F)(F)F)nc1N1CCOCC1)c1cnc(C(=O)Nc2ccc(F)cc2)nc1 (stereo not drawn) [compound 80]	60
CC1CCN(c2nc(C(F)(F)F)ccc2CNC(=O)Nc2cnc(N(C)C)c(C(F)(F)F)c2)CC1 [compound 104]	9
CC1CCN(c2nc(C(F)(F)F)ccc2CNC(=O)C(C)c2cccnc2)CC1 (stereo not drawn) [compound 32]	10
O=C(NCc1ccc(C(F)(F)F)nc1-c1cncc(Cl)c1)Nc1ccc(NCCO)nc1 [compound 131]	29
